procedure-text: viability gain of MRP-1-high H69AR cells under doxorubicin, pilot screen, MRP-1 activator project, CellTiter-Glo, duplicate (AID 807);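 further: compound pretreatment 18-22 h then 72 h combined with doxorubicin; 0% = doxorubicin alone and 100% = vehicle without doxorubicin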
measurement-parameters: H69AR viability with doxorubicin, CellTiter-Glo luminescence; at 10 µM; hits give high values
The reader will find reported viability increase values listed item by item below.
Value expressed in %; do not type the unit.

Cc1cc2cc(CCNC(=O)c3c(-c4ccccc4Cl)noc3C)c(=O)[nH]c2cc1C: -3.71
Cc1cccc(NC(=O)Nc2ccc(C#N)cc2)n1: -5.92
N#CCCCSc1nnc(-c2ccc(Cl)cc2)n1-c1ccccc1: -3.58
CCCn1c(CNc2ccc(Br)cc2)nc2ccccc21: -3.5
Cc1ccc(-c2noc(CN(C(=O)c3cccc(Br)c3)C(C)C)n2)cc1: 1.98

Please give measured viability increase of the following entry: O=C(NC1CCCCCCC1)C1CCC(CNc2c(N3CCCC3)c(=O)c2=O)CC1 (stereo unspecified)
0.87

Please give measured viability increase of the following entry: COc1ccccc1C1C(C(N)=O)=C(C)Nc2nc(-c3ccc(Cl)cc3)nn21 (stereo unspecified)
-1.26

Please give measured viability increase of the following entry: CCOC(=O)c1sc(NC(=O)c2cc(S(=O)(=O)N3CCOCC3)ccc2C)nc1C
-2.11

Please give measured viability increase of the following entry: CCOC(=O)C1CCCN(C(=O)Cn2ncc3c(=O)oc4ccc(C)cc4c32)C1 (stereo unspecified)
-1.41

Please give measured viability increase of the following entry: CC(=O)NCc1nc2ccccc2n1Cc1ccccc1F
-0.31

Please give measured viability increase of the following entry: CCc1nnc(NC(=O)c2ccc(N3C(=O)CCC3=O)cc2)s1
-1.98
